This listing pairs compounds with measured GI50.
Test system: SK-MEL-28
assay-summary: NCI tumour cell line growth inhibition, 48 h
Calls of active or inactive are those of the source. Cut-off read from the data, not from the text of the source: active = GI50 up to about 1.1 µM and inactive = higher.
parameter-measured: GI50

compound	parameter-measured	observed
COc1ccc(C2SC(=N)Nc3c2c(C)nn3C(=O)c2ccncc2)cc1 (stereo unspecified)	GI50	> 100 µM (inactive)
COc1ccc2c(c1)-c1c(c3ccccc3n1CCN1CCCCC1)CC2	GI50	30.2 µM (inactive)
CCCCC/C(=N\c1[nH]cnc1C(N)=O)OCC	GI50	> 100 µM (inactive)
OC1CCN(c2c3ccccc3nc3ccccc23)CC1	GI50	2.69 µM (inactive)
CC1(C)CCCC2OC2CCC(C)(C)C1=O (stereo unspecified)	GI50	> 100 µM (inactive)
CC(=O)OC(=O)O/C=C\CCl	GI50	> 100 µM (inactive)
O=C(O)/C=C/c1c[nH]cn1	GI50	> 500 µM (inactive)
Cc1ccc(O)c(C(c2cc(C)ccc2O)c2cc([N+](=O)[O-])ccc2O)c1	GI50	5.73 µM (inactive)
COc1ccc(C[C@H]2NC(=O)/C=C/C[C@@H]([C@H](C)[C@H]3O[C@@H]3c3ccccc3)OC(=O)[C@H](CC(C)C)OC(=O)[C@H](C)CNC2=O)cc1	GI50	4.83e-05 µM (active)
O=c1c(Cc2cccc(Cc3c(O)oc4ccccc4c3=O)c2)c(O)oc2ccccc12	GI50	> 100 µM (inactive)
Cc1ccc(N2C(=O)CC(=O)N(NC(=O)C(C)Oc3ccccc3C)C2=S)cc1 (stereo unspecified)	GI50	> 100 µM (inactive)
Oc1cc(Br)cc2cc(Br)cnc12	GI50	2.02 µM (inactive)
CCN(CC)CC(C(=O)Nc1c(C)cccc1C)/C(C)=N\NC(=S)NN (stereo unspecified)	GI50	> 100 µM (inactive)
O=c1c2cc(-c3ccccc3)cnc2sn1-c1ccc([N+](=O)[O-])cc1	GI50	58.1 µM (inactive)
O/N=C(\c1nc2ccc(Cl)cc2nc1O)C(O)c1ccc(Cl)cc1Cl (stereo unspecified)	GI50	> 100 µM (inactive)
CC(C)=CCc1c(O)c(CC=C(C)C)c2oc3c(c(=O)c2c1O)C(C=C(C)C)Oc1cc(O)ccc1-3 (stereo unspecified)	GI50	7.53 µM (inactive)

###

System: OVCAR-4
assay-summary: NCI tumour cell line growth inhibition, 48 h
The source made the active and inactive calls. No stated cut-off is given here; in the data, active = GI50 up to about 1.1 µM and inactive = higher.
parameter-measured: GI50

molecule	observed
Nc1ncnc2c1ncn2C1(CO)OC(CO)C(O)C1O (stereo not given)	> 100 µM (inactive)
Clc1ccc(/C=C/c2csnn2)cc1	> 100 µM (inactive)
C[C@]12CC[C@H](O)CC1=CC[C@@H]1[C@@H]2CC[C@]2(C)/C(=N/OCCN3CCCC3)CC[C@@H]12	16.4 µM (inactive)
Oc1ccc(O)c(CNc2ccc(C(O)C(F)(F)F)cc2)c1 (stereo not given)	16.3 µM (inactive)
CC(CCC(=O)O)(c1cc(Br)c(O)c(Br)c1)c1cc(Br)c(O)c(Br)c1	> 100 µM (inactive)
CN(C)c1ccc(/C=C/C(=O)c2ccccc2)cc1Br	15.5 µM (inactive)
COc1cc(O)c2c(c1)O[C@@H]1OCC[C@H]21	> 100 µM (inactive)
NCCNc1nc(N2CCCC2)c2nc(Cl)c(NCc3ccccc3)nc2n1	2.16 µM (inactive)
CC(C)(C)c1ccc(Oc2ccc(C#N)c(C#N)c2)c(C(C)(C)C)c1	49.7 µM (inactive)
Sc1nn2c(COc3cc(Cl)c(OCc4nnc5sc(S)nn45)cc3Cl)nnc2s1	51.8 µM (inactive)
CC(C)c1ccc(C(c2ccc(OCC(=O)O)cc2)c2ccc(C(C)C)cc(=O)c2O)c(O)c(=O)c1	3.61 µM (inactive)
Oc1ccc(/N=N/c2ccc(Cl)cc2)cc1	14.9 µM (inactive)
CCC1CN2CCC1CC2 (stereo not given)	> 100 µM (inactive)
O=C(O)c1ccc([N+](=O)[O-])c2c(=O)c3ccccc3[nH]c12	> 100 µM (inactive)
CC(C)(C)C(=O)C(c1ccc(-c2cscn2)cc1)c1ccc(-c2cscn2)cc1	3.25 µM (inactive)

###

System: LXFL 529
assay-summary: NCI tumour cell line growth inhibition, 48 h
The source made the active and inactive calls. No stated cut-off is given here; in the data, active = GI50 up to about 1.1 µM and inactive = higher.
This listing pairs compounds with measured GI50.

compound	GI50
COc1cc([C@@H]2c3cc4c(cc3[C@@H](NC(=O)c3cccc(F)c3)C3COC(=O)[C@@H]32)OCO4)cc(OC)c1O (stereo partly specified)	5.5 µM (inactive)
CCC(=O)N1C(=O)OCC1C(C)C (stereo unspecified)	> 100 µM (inactive)
CCCCN1C(=O)C2c3[nH]c4ccccc4c3C3CCCCC3C2C1=O.CCCCN1C(=O)C2c3[nH]c4ccccc4c3[C@@H]3CCCCC3C2C1=O (stereo unspecified)	13.6 µM (inactive)
COc1ccc(/C=[N+](\[O-])[C@H](COCc2ccccc2)c2ccccc2)cc1	77.8 µM (inactive)
COc1cc(/C=C\c2ccncc2)cc(OC)c1OC	67.6 µM (inactive)
CC1CC(=O)Nc2ccc(Cl)cc2N1C(=O)CN1CCC(CCCCN(C)C)CC1 (stereo unspecified)	> 100 µM (inactive)

###

Test system: SW-620
assay-summary: NCI tumour cell line growth inhibition, 48 h
Structures can show the parent of a compound that is named as a salt. Calls of active or inactive are those of the source. No stated cut-off is given here; in the data, active = GI50 up to about 1.1 µM and inactive = higher.
parameter-measured: GI50

compound	experimental-system	parameter-measured	observed
CC(=O)OCC12C(OC(C)=O)C[C@@H](C)C3(CC(c4ccoc4)OC3=O)C1CCC(OC(C)=O)C21CO1 (some centres undefined)	SW-620	GI50	> 100 µM (inactive)
COc1ccc(N2C(=O)C3CC4=CC(=O)C[C@H]4[C@H]32)cc1 (some centres undefined)	SW-620	GI50	66.1 µM (inactive)
Cc1cc2c(=O)cc(-c3ccc(C(=O)O)cc3)oc2c(C(N)=O)c1C	SW-620	GI50	> 100 µM (inactive)
c1c[nH]c(Cc2nc(Cc3c[nH]cn3)c[nH]2)n1	SW-620	GI50	6.73 µM (inactive)
COC1=CC(C)C2C[C@H]3O[C@H](O)C[C@H]4C(C)C(=O)C(O)C([C@@]2(C)C1=O)[C@@]34C (some centres undefined)	SW-620	GI50	> 100 µM (inactive)
COc1ccc(-c2nnc3c4ccccc4sn23)cc1	SW-620	GI50	49 µM (inactive)
CCN(CC)C1=Nc2ccccc2-n2c(C)cnc2C1	SW-620	GI50	> 100 µM (inactive)
Cc1cc(C(=O)N2CCN(Cc3ccccc3)CC2)c(C)o1	SW-620	GI50	> 100 µM (inactive)
CCc1ccc2c(c1)N(CC(C)CN(C)C)c1ccccc1S2 (centres undefined) [ETYMEMAZINE HYDROCHLORIDE]	SW-620	GI50	5.53 µM (inactive)

###

Test system: NCI-H522
assay-summary: NCI tumour cell line growth inhibition, 48 h
The source made the active and inactive calls. No stated cut-off is given here; in the data, active = GI50 up to about 1.1 µM and inactive = higher.
parameter-measured: GI50

molecule	observed
CCc1ccccc1NC(=O)/C(CC(=O)c1c(C)[n+]([O-])c2ccccc2[n+]1[O-])=N\NS(=O)(=O)c1ccc(C)cc1	16.1 µM (inactive)
CC(=O)OC1COC(n2nc(/C=C/c3ccc(Cl)cc3)c(=O)n(/N=C/c3ccccc3)c2=S)C(OC(C)=O)C1OC(C)=O (stereo not given)	> 100 µM (inactive)
CC(C)(C)C1CCP(=O)(c2ccccc2)CC1 (stereo not given)	> 100 µM (inactive)
N#CCc1nc2c(s1)C(=O)c1ccccc1C2=O	14.7 µM (inactive)
N#Cc1cc2c(n(C3OC(CO)C(O)C(O)C3O)c1=S)CCCCCC2 (stereo not given)	> 100 µM (inactive)

###

This listing pairs compounds with measured GI50.
Tested on: UO-31
assay-summary: NCI tumour cell line growth inhibition, 48 h
Calls of active or inactive are those of the source. Cut-off read from the data, not from the text of the source: active = GI50 up to about 1.1 µM and inactive = higher.

compound	GI50
OC1CCN(c2c3ccccc3nc3ccccc23)CC1	2.45 µM (inactive)
C[N+]12C=CC=C1C(N1CCCC1)c1scc(-c3ccccc3)c12 (stereo unspecified)	> 100 µM (inactive)
COc1ccccc1/N=N/c1c(O)c(S(=O)(=O)O)cc2cc(S(=O)(=O)O)ccc12	> 100 µM (inactive)
NC(CCSCC(F)F)C(=O)O (stereo unspecified)	> 100 µM (inactive)
NS(=O)(=O)c1ccc(NCc2nc3ccccc3[nH]2)cc1	> 100 µM (inactive)
CN(CC(=O)O)S(=O)(=O)c1ccc(F)cc1	> 100 µM (inactive)

###

System: UACC-257
assay-summary: NCI tumour cell line growth inhibition, 48 h
Activity calls are given as the source filed them. Cut-off read from the data, not from the text of the source: active = GI50 up to about 1.1 µM and inactive = higher.
This listing pairs molecules with measured GI50.
parameter-measured: GI50

molecule	observed
C[C@H](CSC(=O)c1ccccc1)C(=O)N1c2ccccc2C[C@H]1C(=O)O	> 100 µM (inactive)
COc1c(Cl)cc(S(=O)O)cc1Cl	> 100 µM (inactive)
N#CC1(C#N)C(c2ccccc2)C=CC12OCCCO2 (centres undefined)	27.4 µM (inactive)
CCN(CC)c1ccc(/N=N/c2ccc([N+](=O)[O-])cc2OC(=O)/C=C/c2ccccc2)c(OC(=O)/C=C/c2ccccc2)c1	2.23 µM (inactive)
Cc1ccc(NC(=O)CCc2nnc3s/c(=C\c4cccc([N+](=O)[O-])c4)c(=O)n23)cc1	> 100 µM (inactive)
O=C(CCCCCCCCC(=O)NN1C(=O)/C(=C\c2ccc(O)c(O)c2)SC1c1c(O)ccc2ccccc12)NN1C(=O)C(=Cc2ccc(O)c(O)c2)SC1c1c(O)ccc2ccccc12 (centres undefined)	10.7 µM (inactive)
Nc1n[n+]([O-])c2cc([N+](=O)[O-])ccc2[n+]1[O-]	13.3 µM (inactive)
Cc1nnc2sc(N/N=C/c3ccccc3)nn12	> 100 µM (inactive)
CC(=O)Oc1ccccc1C(=O)O [ASPIRIN]	> 100 µM (inactive)
Clc1ccc(-c2cc3nc4ccccc4nc3o2)cc1	34.8 µM (inactive)
CCN(CC)CC(C(=O)Nc1c(C)cccc1C)/C(C)=N\NC(=S)NN (centres undefined)	> 100 µM (inactive)
COc1ccc2oc(-c3cc4cc(OC)ccc4o3)cc2c1	> 100 µM (inactive)
CC1(C)CC(=O)c2c(nc3ccc4ccccc4c3c2-c2ccc(NC(=O)CCC(=O)Nc3ccc(-c4c5c(nc6ccc7ccccc7c46)CC(C)(C)CC5=O)cc3)cc2)C1	> 100 µM (inactive)
Cn1nc(Cc2ccc(Cl)cc2)n(N)c1=O	> 100 µM (inactive)

Just for reference, ChEMBL document CHEMBL1201862 is where these values come from.
